PROTOCOL_TEXT: reduced SW480 viability measured with CellTiter-Glo, NPC library, primary (AID 1117343)
TEST_PARAMETERS: CellTiter-Glo luminescence; at 20 µM (top of the series)
ENDPOINT_NAME: viability decrease (inhibition) (%)

- O=C(O)c1ccccc1OP(=O)(O)O: 6.6
- C[C@H](N)[C@H](O)c1cccc(O)c1: 37.4
- Oc1ccc(C2CNCCc3c2cc(O)c(O)c3Cl)cc1 (centres undefined): 50.9
- OCc1cc(C(O)CNCCCCCCOCCCCc2ccccc2)ccc1O (centres undefined): 46.4

----------
PROTOCOL_TEXT: EMT-state selective cytotoxicity in co-culture – imaging, PC-3E GFP, TEM4-18 mCherry, primary screen (AID 1345086);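 note: normalised mesenchymal count divided by normalised epithelial count so high means epithelial killing; cells exposed to compound for 72 h before imaging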
TEST_PARAMETERS: PC-3E GFP / TEM4-18 mCherry co-culture, imaging cell counts; at 1 µM; actives lie on both sides; counts scaled to control wells, 1 = unselective
ENDPOINT_NAME: red/green cell ratio (normalised)

• CN1CCC(=C2c3ccccc3CCc3sccc32)CC1 = 0.85
• O=C1CC2(CCCC2)CC(=O)N1CCCCN1CCN(c2ncccn2)CC1 = 1.04
• Cc1ccccc1OCC(O)CO (stereo not drawn) = 1.04
• CCCCOc1ccc(C(=O)CCN2CCCCC2)cc1 = 1.3
• OC(CCN1CCCCC1)(c1ccccc1)c1ccccc1 = 0.87
• CCc1nn(CCCN2CCN(c3cccc(Cl)c3)CC2)c(=O)n1CCOc1ccccc1 = 1.11
• CN(C)c1ccc2nc3ccc(=[N+](C)C)cc-3sc2c1 = 0.68
• NCCS = 1.27

----------
MEASURED_TARGET: ATP-dependent translocase ABCB1 (Homo sapiens)
PROTOCOL_TEXT: P-glycoprotein substrate transport blockade – cell-based (AID 377)
TEST_PARAMETERS: MDR1-expressing cells, fluorescent substrate accumulation slope; concentration not given here
Inconclusive results are not listed. Calls of active or inactive are those of the source. Cut-off read from the data, not from the text of the source: active = fluorescence slope change above about 50%; inconclusive = mostly about 31% to 49%; inactive = weaker than that.
Possible outcomes: label 1 for active, label 0 for inactive

• CN1CCC(OC(c2ccccc2)c2ccccc2)CC1 = label 0
• Cc1ccccc1OCC(O)CO (centres undefined) = label 1
• CN1CCC(=C2c3ccccc3C=Cc3ccccc32)CC1 = label 1
• CCOC(=O)C1=C[C@]2(CC)CCCN3CCc4c(n1c1ccccc41)[C@@H]32 = label 1

----------
Property: period change; scope: individual compounds
PROTOCOL_TEXT: compounds altering circadian rhythm period length – cell-based, LOPAC library, luminescence reporter (AID 2774);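 note: values are relative to mean of DMSO wells on each plate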
TEST_PARAMETERS: circadian reporter cells, at 7 µM, actives lie on both sides
Activity calls are given as the source filed them. How the calls were made is not given here.
ENDPOINT_NAME: period change

* CCOC(=O)c1ncn2c1CN(C)C(=O)c1cc(F)ccc1-2 | -0.15 h (inactive)
* CSc1ccc2c(c1)C(N1CCN(C)CC1)Cc1ccccc1S2 (centres undefined) | 0.085 h (inactive)
* O=c1c(-c2ccc(O)cc2)coc2cc(O)cc(O)c12 | 0 h (inactive)
* C[N+]1(CCCCC[N+]2(C)CCCC2)CCCC1 | 0.04 h (inactive)
* NC(N)=N/N=C/c1c(Cl)cccc1Cl | 0.195 h (inactive)
* CC1(C)NC(=O)N(c2ccc([N+](=O)[O-])c(C(F)(F)F)c2)C1=O | 0.085 h (inactive)
* NC/C=C/C(=O)O | -0.005 h (inactive)
* CO[C@@]1(NC(=O)CSCC#N)C(=O)N2C(C(=O)O)=C(CSc3nnnn3C)CS[C@@H]21 | -0.07 h (inactive)
* COCCc1ccc(OCC(O)CNC(C)C)cc1 (centres undefined) | 0.045 h (inactive)

----------
PROTOCOL_TEXT: HCT116 colon cancer cell growth inhibition, primary screen, CellTiter-Glo luminescence, NPC library (AID 1117342)
TEST_PARAMETERS: at 20 µM (top of the series)
Property: inhibition of viability; scope: individual molecules
ENDPOINT_NAME: inhibition of viability (%)

* Cc1ncc([N+](=O)[O-])n1CC(O)CCl (stereo not given) | 0.2
* C[C@H]1COc2c(C3(N)CC3)c(F)cc3c(=O)c(C(=O)O)cn1c23 | -19.1
* CC(=O)N[C@@H](CS)C(=O)O | -0.95
* Nc1nc(F)nc2c1ncn2[C@@H]1O[C@H](CO)[C@@H](O)[C@@H]1O | 38
* O=C(N[C@H](CO)[C@H](O)c1ccc([N+](=O)[O-])cc1)C(Cl)Cl | -1.7
* COc1cnc(NS(=O)(=O)c2ccc(N)cc2)nc1 | -7.43
* Oc1ccc(Cl)c2cccnc12 | 32.7
* CN(C)CC[C@@H](c1ccc(Cl)cc1)c1ccccn1 | 28.8
* Nc1cc(-c2ccncc2)c[nH]c1=O | -3.67
* C#CCN(C)Cc1ccccc1 | 2.23
* Nc1nc2c(c(=O)[nH]1)N(C=O)C(CNc1ccc(C(=O)N[C@@H](CCC(=O)O)C(=O)O)cc1)CN2 (stereo not given in full) | -11.6
* CC(C)c1nc(CN(C)C(=O)N[C@H](C(=O)N[C@@H](Cc2ccccc2)C[C@H](O)[C@H](Cc2ccccc2)NC(=O)OCc2cncs2)C(C)C)cs1 | 67.7
* O=C(OCC(O)CO)c1ccccc1Nc1ccnc2cc(Cl)ccc12 (stereo not given) | 38.5
* CCCCC1C(=O)N(c2ccccc2)N(c2ccccc2)C1=O | 9.25
* NC(N)=NC(=O)Cc1c(Cl)cccc1Cl | 68.9

----------
PROTOCOL_TEXT: Wnt pathway potentiators raising nuclear beta-catenin – imaging, WNT3A-conditioned medium, mouse C2C12, NPC library, primary screen (AID 1117326)
TEST_PARAMETERS: at 10 µM, stronger effect = higher value
Property: nuclear beta-catenin stimulation; scope: individual compounds
ENDPOINT_NAME: nuclear beta-catenin stimulation (%)

• COc1cc(C)nc(-n2nc(C)cc2OC)n1 = -1.3
• CC(C)(Oc1ccc(Cl)cc1)C(=O)O = 1.8
• CCOc1cc(N)c(Cl)cc1C(=O)NCC1CN(Cc2ccc(F)cc2)CCO1 (stereo not given) = 2.5
• CCN(CC)CCOC(=O)C(Cc1cccc2ccccc12)CC1CCCO1 (stereo not given) = 0.6
• CCN(CC)CCOC(=O)C(c1ccccc1)c1ccccc1 = 0.8

----------
PROTOCOL_TEXT: yeast 75Q aggregation reduction – 75Q-TubU reporter (AID 1593)
TEST_PARAMETERS: Yeast 75Q polyglutamine aggregation reporter
ENDPOINT_NAME: score

* C=C1c2cccc(O)c2C(O)=C2C(=O)[C@]3(O)C(O)=C(C(N)=O)C(=O)[C@@H](N(C)C)[C@@H]3[C@@H](O)[C@H]12 | 0.99
* CN1CCC[C@@H]1CCO[C@](C)(c1ccccc1)c1ccc(Cl)cc1 | 1.25
* O=c1c(O)c(-c2ccc(O)c(O)c2)oc2cc(O)cc(O)c12 | 1.53
* CCn1cc(C(=O)O)c(=O)c2cc(F)c(N3CCNCC3)nc21 | 1.5

----------
PROTOCOL_TEXT: JHH-DIPG-1 glioma cell viability, MIPE5.0 library, CellTiter-Glo luminescence, qHTS (AID 1347067);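 note: cells exposed to compound for 48 hours before readout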
TEST_PARAMETERS: JHH-DIPG-1 glioma viability, CellTiter-Glo ATP luminescence
Results filed as inconclusive are left out. The source made the active and inactive calls. Cut-off not given; nearly all actives show AC50 up to about 26 µM.
ENDPOINT_NAME: AC50

- Cc1[nH]c(=O)c(C#N)cc1-c1ccncc1: inactive
- CCCCN(CCCC)CCC(O)c1cc2c(Cl)cc(Cl)cc2c2cc(C(F)(F)F)ccc12 (stereo unspecified): 16.6 µM (active)
- CN1CCC(=C2c3ccccc3C=Cc3ccccc32)CC1: inactive
- CN(Cc1cc(Br)cc(Br)c1N)C1CCCCC1: 26.3 µM (active)
- NC(=O)NO: inactive
- Nc1nnc(-c2cccc(Cl)c2Cl)c(N)n1: inactive
- Nc1nc(F)nc2c1ncn2[C@@H]1O[C@H](CO)[C@@H](O)[C@@H]1O: inactive
- Cn1cnc2c1c(=O)[nH]c(=O)n2C: inactive
- CC1=CC(=O)c2ccccc2C1=O: 33.2 µM (active)
- CCCCc1ccc2nc(NC(=O)OC)[nH]c2c1: 0.332 µM (active)
- O=C(O)c1cn(-c2ccc(F)cc2)c2cc(N3CCNCC3)c(F)cc2c1=O: inactive
- COc1cccc2c1C(=O)c1c(O)c3c(c(O)c1C2=O)C[C@@](O)(C(=O)CO)C[C@@H]3O[C@H]1C[C@H](N)[C@H](O)[C@H](C)O1: 1.05 µM (active)
- CO[C@@]12[C@H](COC(N)=O)C3=C(C(=O)C(C)=C(N)C3=O)N1C[C@@H]1N[C@@H]12: 3.32 µM (active)
- CC(C)COCC(CN(Cc1ccccc1)c1ccccc1)N1CCCC1 (stereo unspecified): 18.6 µM (active)
- NCCCCCC(=O)O: inactive
- CC(C)NCC(O)COc1ccc(CCOCC2CC2)cc1 (stereo unspecified): inactive
- CCC[C@H](N[C@@H](C)C(=O)N1[C@H](C(=O)O)C[C@@H]2CCCC[C@@H]21)C(=O)OCC: inactive
- Nc1ccc(S(N)(=O)=O)cc1: inactive
- CC1(C)O[C@@H]2C[C@H]3[C@@H]4C[C@H](F)C5=CC(=O)C=C[C@]5(C)[C@@]4(F)[C@@H](O)C[C@]3(C)[C@]2(C(=O)CO)O1: inactive
- CC1=NN(c2ccccc2)C(=O)C1: inactive
- CN1C(C(=O)Nc2ccccn2)=C(O)c2sccc2S1(=O)=O: inactive
- CCc1c2c(nc3ccc(OC(=O)N4CCC(N5CCCCC5)CC4)cc13)-c1cc3c(c(=O)n1C2)COC(=O)[C@]3(O)CC: 23.5 µM (active)
- CCN1CCN(C(=O)N[C@@H](C(=O)N[C@@H]2C(=O)N3C(C(=O)O)=C(CSc4nnnn4C)CS[C@H]23)c2ccc(O)cc2)C(=O)C1=O: inactive
- O=C(O)CCNC(=O)c1ccc(N=Nc2ccc(O)c(C(=O)O)c2)cc1: inactive
- O=C1N(c2ccccc2)c2ccccc2C1(Cc1ccncc1)Cc1ccncc1: inactive
- OC[C@H]1O[C@@H](O[C@@H]2[C@@H](CO)O[C@](O)(CO)[C@H]2O)[C@H](O)[C@@H](O)[C@H]1O: inactive
- O=C1Nc2ccc(Cl)cc2[C@@](C#CC2CC2)(C(F)(F)F)O1: 20.9 µM (active)
- CC(=O)[C@]1(O)Cc2c(O)c3c(c(O)c2[C@@H](O[C@H]2C[C@H](N)[C@H](O)[C@H](C)O2)C1)C(=O)c1ccccc1C3=O: 4.68 µM (active)
- C1CCC(C(CC2CCCCN2)C2CCCCC2)CC1 (stereo unspecified): 8.33 µM (active)
- Nc1nc2c(ncn2COC(CO)CO)c(=O)[nH]1: inactive
- CCCCC(=O)O[C@]1(C(=O)CO)[C@@H](C)C[C@H]2[C@@H]3CCC4=CC(=O)C=C[C@]4(C)[C@@]3(F)[C@@H](O)C[C@@]21C: inactive
